Every entry's value here was drawn from paper PMC8152782.

# Tested on: HeLa cells
# assay.notes: Presto blue cell viability assay, HeLa cells
# Type: cell-based, Human
# condition.label: 24 hour incubation, n = 3
measured.quantity: IC50 (µM)
Respond with the bare value in µM.

Prompt line: Which IC50 value belongs to `C(=N\CCN1CCCCC1)/c1c2ccccc2c(/C=N/CCN2CCCCC2)c2ccccc12` ?
Response line: 23.8

Prompt line: Entry `C(=N\CCc1c[nH]c2ccccc12)/c1c2ccccc2c(/C=N/CCc2c[nH]c3ccccc23)c2ccccc12` please
Response line: 30.6

====

Consider the following compounds; for each one, report its pIC50.
# Tested on: HeLa cells
# assay.notes: Presto blue cell viability assay, HeLa cells
# Assay type: cell-based, Human
# condition.label: Homo sapiens, HeLa, 24 h, 24 hour incubation, n = 3
Please express pIC50 as -log10 of the molar concentration.

Prompt line: Which pIC50 value belongs to C(=N\Cc1ccc2c(c1)OCO2)/c1c2ccccc2c(/C=N/Cc2ccc3c(c2)OCO3)c2ccccc12 [Compound 2a] ?
Response line: 4.74

Prompt line: Entry C(=N\CCc1c[nH]c2ccccc12)/c1c2ccccc2c(/C=N/CCc2c[nH]c3ccccc23)c2ccccc12 [Compound 2c] please
Response line: 4.52

Prompt line: Entry Cc1cnc(/N=C/c2c3ccccc3c(/C=N/c3ncc(C)s3)c3ccccc23)s1 [Compound 2e] please
Response line: 4.69

Prompt line: Entry C(=N\CCN1CCCCC1)/c1c2ccccc2c(/C=N/CCN2CCCCC2)c2ccccc12 [Compound 2d] please
Response line: 4.62

Prompt line: Entry C(=N\CCCN1CCOCC1)/c1c2ccccc2c(/C=N/CCCN2CCOCC2)c2ccccc12 [Compound 2b] please
Response line: 4.61
